system.tested: recombinant HA of influenza B virus B/Mass/12 (Yamagata clade) (influenza B virus B/Mass/12 (Yamagata …))
protocol.summary: recombinant HA ELISA (AttoPhos fluorescence, mean of triplicates)
List of fold reactivity over background values.
// return the numeric value with its unit appended

Worked examples follow.
TRL812 (antibody, V domains shown) VH: QVQLVQSGGGVVQPGRSLRLSCAASGFNFSSYGMHWVRQAPGKGLEWLSVIWSGGSNKYYADSVKGRFTISRDDSKNTVYLQMNSLRDEDTAVYYCARAHTALTRFRWLDPWGQGILVTVSS VL: DIVMTQSPATLSVSPGEGATLSCRASQGIGSNLAWYQHKPGQAPRLLIYAASTRATGVPARFSGSGSGTEFTLTISSLQSEDLAVYFCQQYNTWPLTFGGGTKVEIIR	25.6 fold over background
TRL856 (antibody, V domains shown) VH: QVQLVESGGGLVQPGGSLRLSCAASGFTFSDYWMVWVRQAPGKGLVWVSRISSDGSTTSYADSVKGPFTISRDNAKNTLYLQMNSLRAEDTAVYYCARVATPYYYESGFDYWGQGALVTVSS VL: DIVLTQSPSVSVAPGQTARITCGGNDIGSKSVHWYQQKPGQAPVLVVFDDRDRPSGIPERFSGSNSGNTATLTISRVEAGDEADYYCQVWDITSDLVVFGGGTKLTVVG	25.6 fold over background

// query fold reactivity over background value for entry TRL847 (antibody, V domains shown) VH: QVQLVESGGGLVQPGGSLRLSCVASGFTFSRFSMNWVRQAPGMGLEWVSYISDTGRTIYYADSVKGRFTISRDNDKNTLYLQMKSLRDEDSAFYYCARDPDTPFVRAFDSWGQGVLVTVSS VL: DIVMTQSPSFLSASVGDRVTITCRTSQVISSYLAWYQQRPGKAPKLLIYAASTLQSGVPSRFSGSGSGTRFSLTISNLQPEDFATYFCQQLTTYPPITFGQGTRLEIKR 25.6 fold over background
